Assay: Hemolytic activity against human erythrocytes at 12.5 uM after 40 mins relative to control
Type: ADME, cell-based, Erythrocyte
Conditions: read-out: Activity
Where a SMILES comes first, the peptide text is derived from it. [ ]: non-standard residue; d: D form.
quantity: hemolysis at 40 min, 12.5 µM (%)

CC[C@H](C)[C@H](NC(=O)[C@H](CCCNC(=N)N)NC(=O)[C@H](Cc1c[nH]c2ccccc12)NC(=O)[C@@H](CC(C)C)NC(=O)[C@H](Cc1ccccc1)NC(=O)[C@H](CCCCN)NC(=O)[C@H](CO)NC(=O)[C@H](Cc1ccccc1)NC(=O)[C@H](Cc1c[nH]c2ccccc12)NC(=O)[C@@H]1CCCN1C(=O)[C@@H](NC(=O)[C@@H](N)Cc1ccccc1)C(C)C)C(=O)N[C@@H](CC(C)C)C(N)=O (H-FVPWFSKF[dL]WRIL-NH2): 7
CC[C@H](C)[C@H](NC(=O)[C@H](CCCNC(=N)N)NC(=O)CNC(=O)[C@@H](CC(C)C)NC(=O)[C@H](Cc1ccccc1)NC(=O)[C@H](CCCCN)NC(=O)[C@H](CO)NC(=O)[C@H](Cc1ccccc1)NC(=O)[C@H](Cc1c[nH]c2ccccc12)NC(=O)[C@@H]1CCCN1C(=O)[C@@H](NC(=O)[C@@H](N)Cc1ccccc1)C(C)C)C(=O)N[C@@H](CC(C)C)C(N)=O (H-FVPWFSKF[dL]GRIL-NH2): 6
CC[C@H](C)C(NC(=O)[C@H](CCCNC(=N)N)NC(=O)[C@@H](CCCCN)NC(=O)[C@@H](CC(C)C)NC(=O)[C@H](Cc1ccccc1)NC(=O)[C@H](CCCCN)NC(=O)[C@H](CO)NC(=O)[C@H](Cc1ccccc1)NC(=O)[C@H](Cc1c[nH]c2ccccc12)NC(=O)[C@@H]1CCCN1C(=O)[C@@H](NC(=O)[C@@H](N)Cc1ccccc1)C(C)C)C(=O)N[C@@H](CC(C)C)C(N)=O (single isomer, unassigned): 5

----------
Assay: Hemolytic activity against human erythrocytes at 6.25 uM after 40 mins relative to control
Type: ADME, cell-based, Erythrocyte
Conditions: read-out: Activity
Where a SMILES comes first, the peptide text is derived from it. [ ]: non-standard residue; d: D form.
quantity: hemolysis at 40 min, 6.25 µM (%)

CC[C@H](C)C(NC(=O)[C@H](CCCNC(=N)N)NC(=O)[C@@H](CCCCN)NC(=O)[C@@H](CC(C)C)NC(=O)[C@H](Cc1ccccc1)NC(=O)[C@H](CCCCN)NC(=O)[C@H](CO)NC(=O)[C@H](Cc1ccccc1)NC(=O)[C@H](Cc1c[nH]c2ccccc12)NC(=O)[C@@H]1CCCN1C(=O)[C@@H](NC(=O)[C@@H](N)Cc1ccccc1)C(C)C)C(=O)N[C@@H](CC(C)C)C(N)=O (single isomer, unassigned): 1
CC[C@H](C)[C@H](NC(=O)[C@H](CCCNC(=N)N)NC(=O)CNC(=O)[C@@H](CC(C)C)NC(=O)[C@H](Cc1ccccc1)NC(=O)[C@H](CCCCN)NC(=O)[C@H](CO)NC(=O)[C@H](Cc1ccccc1)NC(=O)[C@H](Cc1c[nH]c2ccccc12)NC(=O)[C@@H]1CCCN1C(=O)[C@@H](NC(=O)[C@@H](N)Cc1ccccc1)C(C)C)C(=O)N[C@@H](CC(C)C)C(N)=O (H-FVPWFSKF[dL]GRIL-NH2): 3
CC[C@H](C)[C@H](NC(=O)[C@H](CCCNC(=N)N)NC(=O)[C@H](Cc1c[nH]c2ccccc12)NC(=O)[C@@H](CC(C)C)NC(=O)[C@H](Cc1ccccc1)NC(=O)[C@H](CCCCN)NC(=O)[C@H](CO)NC(=O)[C@H](Cc1ccccc1)NC(=O)[C@H](Cc1c[nH]c2ccccc12)NC(=O)[C@@H]1CCCN1C(=O)[C@@H](NC(=O)[C@@H](N)Cc1ccccc1)C(C)C)C(=O)N[C@@H](CC(C)C)C(N)=O (H-FVPWFSKF[dL]WRIL-NH2): 4
